Collected inhibition at 10 µg/mL values appear next to each entry.
Test system: Balamuthia mandrillaris
Test: Antimicrobial activity against Balamuthia mandrillaris ATCC 50209 infected in HBMEC assessed as inhibition of amoeba-induced cytopathogenicity at 10 ug/mL after 24 hrs by LDH release assay
Assay type: functional
Conditions: ATCC 50209, 24 h
measurement-label: inhibition at 10 µg/mL (%)

In [3]: df
Out[3]:
                                   compound              test_target       measurement_label  unit_spec  measured
0  C[C@@H]1CC[C@H]2[C@@H](C)C(=O)O[C@@H]3O[C@@]4(C)CC[C@@H]1[C@]32OO4  Balamuthia mandrillaris  inhibition at 10 µg/mL          %        45
1  CC(=O)N1CCN(c2ccc(OCC3COC(Cn4ccnc4)(c4ccc(Cl)cc4Cl)O3)cc2)CC1 (centres undefined)  Balamuthia mandrillaris  inhibition at 10 µg/mL          %      88.5
2                         Nc1nc(=O)[nH]cc1F  Balamuthia mandrillaris  inhibition at 10 µg/mL          %        61
3  CCC[C@@H]1C[C@@H](C(=O)N[C@@H]([C@H]2O[C@H](SC)[C@H](O)[C@@H](O)[C@H]2O)[C@H](C)Cl)N(C)C1  Balamuthia mandrillaris  inhibition at 10 µg/mL          %        10

----------
Test system: Balamuthia mandrillaris
Experiment: Antimicrobial activity against Balamuthia mandrillaris ATCC 50209 infected in HBMEC assessed as inhibition of amoeba-induced cytopathogenicity at 5 ug/mL after 24 hrs by LDH release assay
Type: functional
Details: ATCC 50209, 24 h
Collected inhibition at 5 µg/mL values appear next to each entry.
measurement-label: inhibition at 5 µg/mL (%)

In [3]: df
Out[3]:
                                   molecule  measured
0  CCC[C@@H]1C[C@@H](C(=O)N[C@@H]([C@H]2O[C@H](SC)[C@H](O)[C@@H](O)[C@H]2O)[C@H](C)Cl)N(C)C1        16
1  C[C@@H]1CC[C@H]2[C@@H](C)C(=O)O[C@@H]3O[C@@]4(C)CC[C@@H]1[C@]32OO4        34
2  CC(=O)N1CCN(c2ccc(OCC3COC(Cn4ccnc4)(c4ccc(Cl)cc4Cl)O3)cc2)CC1 (centres undefined)        14
3                         Nc1nc(=O)[nH]cc1F        20

----------
Collected inhibition at 10 µg/mL values appear next to each entry.
Test system: Balamuthia mandrillaris
Assay: Antimicrobial activity against Balamuthia mandrillaris ATCC 50209 infected in HBMEC assessed as inhibition of encystment at 10 ug/mL after 7 days
Assay type: functional
Details: ATCC 50209, 168 h
measurement-label: inhibition at 10 µg/mL (%)

>>> print(df.to_string())
                                   compound       measurement_label  measured
0  C[C@@H]1CC[C@H]2[C@@H](C)C(=O)O[C@@H]3O[C@@]4(C)CC[C@@H]1[C@]32OO4 [ARTEMISININ]  inhibition at 10 µg/mL        52
1           Nc1nc(=O)[nH]cc1F [FLUCYTOSINE]  inhibition at 10 µg/mL        56
2  CCC[C@@H]1C[C@@H](C(=O)N[C@@H]([C@H]2O[C@H](SC)[C@H](O)[C@@H](O)[C@H]2O)[C@H](C)Cl)N(C)C1 [CLINDAMYCIN]  inhibition at 10 µg/mL         0
3  CC(=O)N1CCN(c2ccc(OCC3COC(Cn4ccnc4)(c4ccc(Cl)cc4Cl)O3)cc2)CC1 (centres undefined) [KETOCONAZOLE]  inhibition at 10 µg/mL         0

Ref: ChEMBL document CHEMBL1151422
